- SYSTEM: 12-LOX (Homo sapiens)
- Sequence (P18054 1-663): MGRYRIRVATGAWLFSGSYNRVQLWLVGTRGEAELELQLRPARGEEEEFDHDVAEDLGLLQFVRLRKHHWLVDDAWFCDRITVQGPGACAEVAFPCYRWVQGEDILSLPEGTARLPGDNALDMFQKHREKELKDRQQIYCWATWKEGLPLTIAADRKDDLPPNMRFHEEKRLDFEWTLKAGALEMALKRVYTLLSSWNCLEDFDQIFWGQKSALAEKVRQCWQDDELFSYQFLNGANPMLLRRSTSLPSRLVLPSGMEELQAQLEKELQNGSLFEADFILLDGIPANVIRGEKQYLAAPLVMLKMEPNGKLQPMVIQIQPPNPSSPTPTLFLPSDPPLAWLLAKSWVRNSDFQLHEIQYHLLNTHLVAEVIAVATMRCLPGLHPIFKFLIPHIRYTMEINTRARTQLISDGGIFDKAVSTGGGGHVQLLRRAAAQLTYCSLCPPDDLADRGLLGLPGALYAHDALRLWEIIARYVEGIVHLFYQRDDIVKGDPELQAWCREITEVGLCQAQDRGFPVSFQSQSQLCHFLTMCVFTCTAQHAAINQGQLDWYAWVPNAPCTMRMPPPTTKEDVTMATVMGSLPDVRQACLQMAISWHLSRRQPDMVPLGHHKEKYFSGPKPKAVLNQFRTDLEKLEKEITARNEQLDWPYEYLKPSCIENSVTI
- PROCEDURE DETAILS: 12-LOX fluorescent assay (in vitro lipoxygenase inhibition)
- Type: biochemical
- MEASUREMENT CONTEXT: 100 nM recombinant 12-LOX, 20 μM AA, DHR123 fluorescence; several values in a cell = repeat determinations; read-out: IC50 (μM) values for in vitro lipoxygenase inhibition, 12-LOX
READOUT LABEL: IC50 (µM)

The examples below pair each entry with its known result.
COMPOUND: c1ccc(-c2ccc(NC3CCCCC3)cc2NCCn2cncn2)cc1
IC50 / µM: 0.17

COMPOUND: CN(C)CCCc1c(Nc2ccccc2)cccc1-c1cccc2c1NCC2
IC50 / µM: 0.36

COMPOUND: Fc1c(Nc2ccccc2)ccc2c1CCN2CCn1cncn1
IC50 / µM: 0.05

1. O=C(Nc1ccc(NCCn2cncn2)c(-c2ccccc2)c1)c1ccccc1
2. c1ccc(CNc2ccc(NCCn3cncn3)c(-c3ccccc3)n2)cc1
3. Fc1ccc(Nc2ccc(NCC3(CN4CCCC4)COC3)c(C(F)(F)F)c2)cc1
Q: Arrange the 3 compounds from largest to smallest IC50. Use the labels to give the requested order.
A: 1, 3, 2
(1: 4.02 µM, 3: 0.08 µM, 2: 0.05 µM)

====

- SYSTEM: 12-LOX (Homo sapiens)
- Sequence (P18054 1-663): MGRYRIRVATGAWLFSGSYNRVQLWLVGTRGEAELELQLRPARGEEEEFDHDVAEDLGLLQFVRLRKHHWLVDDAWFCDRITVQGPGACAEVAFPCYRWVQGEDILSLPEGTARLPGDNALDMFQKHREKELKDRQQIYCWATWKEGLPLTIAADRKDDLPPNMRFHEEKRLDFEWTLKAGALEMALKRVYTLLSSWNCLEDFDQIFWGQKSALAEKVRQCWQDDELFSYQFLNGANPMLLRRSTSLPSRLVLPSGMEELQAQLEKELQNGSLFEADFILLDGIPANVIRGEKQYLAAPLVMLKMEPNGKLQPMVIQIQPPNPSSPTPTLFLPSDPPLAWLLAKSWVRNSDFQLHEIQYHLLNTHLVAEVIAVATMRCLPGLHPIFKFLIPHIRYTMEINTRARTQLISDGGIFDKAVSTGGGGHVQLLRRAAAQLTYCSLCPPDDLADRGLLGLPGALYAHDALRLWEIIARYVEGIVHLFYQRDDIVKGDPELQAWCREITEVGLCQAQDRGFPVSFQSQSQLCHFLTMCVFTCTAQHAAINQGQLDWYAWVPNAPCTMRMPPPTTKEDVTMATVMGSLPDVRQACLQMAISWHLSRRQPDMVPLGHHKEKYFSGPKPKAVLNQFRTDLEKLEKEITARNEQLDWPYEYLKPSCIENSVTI
- PROCEDURE DETAILS: 12-LOX fluorescent assay (in vitro lipoxygenase inhibition)
- Type: biochemical
READOUT LABEL: pIC50
As a rule, pIC50 stands for the negative log10 of the concentration, concentration in M.

Reference set (3 entries):
QUERY SMILES: Cn1cc(-c2ccc(Nc3ccccc3)cc2NCCn2cncn2)cn1
pIC50: 5.71

QUERY SMILES: c1ccc(Nc2ccc(-c3ccccc3)c(OCCn3cncn3)c2)cc1
pIC50: 6.31

QUERY SMILES: c1ncn(CCCNc2ccc(NC3CCCCC3)cc2)n1
pIC50: 7.52

Q: Need pIC50, item c1ccc(Nc2ccc(-c3ccccc3)c(NCCn3cncn3)c2)cc1
A: 6.74

Q: // returns reported pIC50 for input c1ccc(Nc2ccc(NCCCn3cncn3)c(-c3ccccc3)c2)cc1
A: 7.70
